Test system: HaCaT
Assay: Cytotoxicity against human HaCaT cells after 72 hrs by MTT assay
Type: cell-based
Conditions: human, hacat
Each entry below lists one item and its recorded IC30 value.
Give just the numeric value; µM need not be written.

CCCCNC1=CC(=O)C(C(C)(C)C)=CC1=O = 50

Please examine the following record next.
-- ask Give the measured IC30 for CC1=CCC[C@H]2[C@](C)(CC3=CC(=O)C=C(NCCc4ccccc4)C3=O)[C@@H](C)CC[C@]12C
-- reply 18

* * *

Test system: HaCaT
Assay: Cytotoxicity against human HaCaT cells after 72 hrs by MTT assay
Assay type: cell-based
Conditions: human, hacat
Examples of compounds with documented log10 of IC30 follow.
Record value = log10 of IC30 given in µM.

// worked examples, log10 of IC30 included
CC(C)(C)C1=CC(=O)C=CC1=O = 1.61
CCCCCCCCNC1=CC(=O)C=C(C[C@]2(C)[C@@H](C)CC[C@]3(C)C(C)=CCC[C@@H]23)C1=O = 1.11
CNC1=CC(=O)C=C(C(C)(C)C)C1=O = 0.90
CCCCNC1=CC(=O)C=C(C(C)(C)C)C1=O = 0.85
CCCCNC1=CC(=O)C=C(C[C@]2(C)[C@@H](C)CC[C@]3(C)C(C)=CCC[C@@H]23)C1=O = 1.04
CCCCCCCCNC1=CC(=O)C=C(C(C)(C)C)C1=O = 1.26
CCNC1=CC(=O)C(C(C)(C)C)=CC1=O = 1.70
CC1=CCC[C@H]2[C@](C)(CC3=CC(=O)C(NCCc4ccccc4)=CC3=O)[C@@H](C)CC[C@]12C = 1.88
CCCCNC1=CC(=O)C(C[C@]2(C)[C@@H](C)CC[C@]3(C)C(C)=CCC[C@@H]23)=CC1=O = 1.93

API: the following record is the query input.
-- ask // fetch log10 of IC30 given entry CCNC1=CC(=O)C=C(C(C)(C)C)C1=O
-- reply 1.34

* * *

System: NCI-H460
Assay: Induction of superoxide anion generation in human NCI-H460 cells at 25 uM after 72 hrs by DHE staining-based flow cytometric analysis relative to control
Assay type: functional, cell-based
Active and inactive are the calls of the source. The calls are words filed in the database; no cut-off is given here.
measurement.kind: Activity

CCCCCCCCNC1=CC(=O)C=C(C[C@]2(C)[C@@H](C)CC[C@]3(C)C(C)=CCC[C@@H]23)C1=O = inactive
CCCCCCCCNC1=CC(=O)C=C(C(C)(C)C)C1=O = inactive
CC(C)(C)C1=CC(=O)C=C(NCCc2ccccc2)C1=O = inactive

* * *

System: HaCaT
Assay: Induction of apoptosis in human HaCaT cells assessed as late apoptotic/necrotic cells at 25 uM after 72 hrs by annexin-V/propidium iodide staining-based flow cytometric analysis (reference value: 0.2%)
Assay type: cell-based
Define the label as satisfied when Activity is strictly less than 1% and as not satisfied in all remaining cases.

Reference set (3 entries):
CC1=CCC[C@H]2[C@](C)(CC3=CC(=O)C=CC3=O)[C@@H](C)CC[C@]12C = not satisfied
CCCCCCCCNC1=CC(=O)C(C[C@]2(C)[C@@H](C)CC[C@]3(C)C(C)=CCC[C@@H]23)=CC1=O = satisfied
CCCCCCCCNC1=CC(=O)C=C(C[C@]2(C)[C@@H](C)CC[C@]3(C)C(C)=CCC[C@@H]23)C1=O = satisfied

-- ask Given CCCCCCCCNC1=CC(=O)C(C(C)(C)C)=CC1=O , is recorded Activity strictly lower than 1%?
-- reply satisfied

-- ask Here's an entry: CC1=CCC[C@H]2[C@](C)(CC3=CC(=O)C=C(NCCc4ccccc4)C3=O)[C@@H](C)CC[C@]12C . Is its Activity below 1%?
-- reply satisfied

-- ask Determine whether this molecule shows Activity lower than 1% (ties excluded): CC(C)(C)C1=CC(=O)C(NCCc2ccccc2)=CC1=O
-- reply not satisfied

* * *

System: NCI-H460
Test: Induction of apoptosis in multidrug resistant human NCI-H460 cells assessed as dead cells at 25 uM after 72 hrs by annexin-V/propidium iodide staining-based flow cytometric analysis (reference value: 1.5%)
Format: functional
measurement.kind: Activity (%)
Provide only the numeric value, understood in %.

// solved cases for Activity follow
CC1=CCC[C@H]2[C@](C)(CC3=CC(=O)C=C(NCCc4ccccc4)C3=O)[C@@H](C)CC[C@]12C = 42.3
CC1=CCC[C@H]2[C@](C)(CC3=CC(=O)C=CC3=O)[C@@H](C)CC[C@]12C = 8.9
CC(C)(C)C1=CC(=O)C(NCCc2ccccc2)=CC1=O = 14.1
CC(C)(C)C1=CC(=O)C=C(NCCc2ccccc2)C1=O = 40.3
CCCCCCCCNC1=CC(=O)C(C(C)(C)C)=CC1=O = 14

-- ask Write down the reported Activity (system: NCI-H460) of CCCCCCCCNC1=CC(=O)C(C[C@]2(C)[C@@H](C)CC[C@]3(C)C(C)=CCC[C@@H]23)=CC1=O
-- reply 3.1

-- ask Under NCI-H460, report Activity for CC(C)(C)C1=CC(=O)C=CC1=O
-- reply 3.1

-- ask Tell me its Activity on NCI-H460: CCCCCCCCNC1=CC(=O)C=C(C(C)(C)C)C1=O
-- reply 36.4

-- ask // fetch Activity for CC1=CCC[C@H]2[C@](C)(CC3=CC(=O)C(NCCc4ccccc4)=CC3=O)[C@@H](C)CC[C@]12C ; system: NCI-H460
-- reply 4.1

-- ask State measured Activity of the molecule CCCCCCCCNC1=CC(=O)C=C(C[C@]2(C)[C@@H](C)CC[C@]3(C)C(C)=CCC[C@@H]23)C1=O with NCI-H460.
-- reply 7.3

* * *

Experiment: Induction of apoptosis in human HaCaT cells assessed as live cells at 25 uM after 72 hrs by annexin-V/propidium iodide staining-based flow cytometric analysis (reference value: 96.8%)
Type: cell-based
Details: read-out: Activity
Below, each entry is listed alongside its reported viability at 72 h, 25 µM.
Answer in %, number only, no unit symbol.

The examples below pair each entry with its known result.
CC(C)(C)C1=CC(=O)C=C(NCCc2ccccc2)C1=O = 74.8
CCCCCCCCNC1=CC(=O)C=C(C(C)(C)C)C1=O = 77
CC1=CCC[C@H]2[C@](C)(CC3=CC(=O)C=C(NCCc4ccccc4)C3=O)[C@@H](C)CC[C@]12C = 58.1
CC1=CCC[C@H]2[C@](C)(CC3=CC(=O)C(NCCc4ccccc4)=CC3=O)[C@@H](C)CC[C@]12C = 89.5

Let us examine a further case.
-- ask Give the measured viability at 72 h, 25 µM for CC(C)(C)C1=CC(=O)C=CC1=O
-- reply 86.8

* * *

Tested on: HaCaT
Experiment: Cytotoxicity against human HaCaT cells after 72 hrs by MTT assay
Format: cell-based
Settings: human, hacat
Overview of recorded IC30 for various molecules
Return type: number; implicit unit µM.

CC(C)(C)C1=CC(=O)C=C(NCc2ccccc2)C1=O = 12
CC1=CCC[C@H]2[C@](C)(CC3=CC(=O)C=CC3=O)[C@@H](C)CC[C@]12C [AVARONE] = 16
CC(C)(C)C1=CC(=O)C=C(NCCc2ccccc2)C1=O = 19
CNC1=CC(=O)C(C(C)(C)C)=CC1=O = 17

As a next step, examine the molecule that follows.
-- ask Entry CC(C)(C)C1=CC(=O)C(NCc2ccccc2)=CC1=O needs its IC30 filled in; supply it.
-- reply 12

* * *

System: HaCaT
Assay: Induction of apoptosis in human HaCaT cells assessed as late apoptotic/necrotic cells at 25 uM after 72 hrs by annexin-V/propidium iodide staining-based flow cytometric analysis (reference value: 0.2%)
Assay type: cell-based
measurement.kind: Activity
Write the figure, then the unit, nothing else.

-- ask Could you please provide reported Activity for CC(C)(C)C1=CC(=O)C=CC1=O ? Thanks!
-- reply 3.8%

-- ask Return value of Activity for input CCCCCCCCNC1=CC(=O)C=C(C(C)(C)C)C1=O , no commentary.
-- reply 2.6%

-- ask Identify the reported Activity for the following entry. CC1=CCC[C@H]2[C@](C)(CC3=CC(=O)C(NCCc4ccccc4)=CC3=O)[C@@H](C)CC[C@]12C
-- reply 1%

-- ask Give the value of Activity reported for the following: CC(C)(C)C1=CC(=O)C=C(NCCc2ccccc2)C1=O
-- reply 6.9%
